- Target entity: α7 nAChR (Homo sapiens)
- Construct: expressed in transfected cells; host or cells: Xenopus oocytes (cRNA injection)
- Assay procedure: α7 nAChR positive allosteric modulator activity assay, voltage clamp in Xenopus oocytes with 100 μM ACh
- Assay type: cell-based
- Details: potentiation of current induced by 100 μM ACh; Hill equation fit
Attribute measured: EC50 (µM)

smiles=Cc1cccc(Cl)c1-n1cnc2nc(Nc3cc(Cl)ncn3)sc2c1=O data_value=10
smiles=Cc1cccc(Cl)c1-n1cnc2nc(NC(=O)c3ccc(Br)cc3)sc2c1=O data_value=9.8
smiles=Cc1cccc(CSc2nc3ncn(-c4c(C)cccc4Cl)c(=O)c3s2)c1 data_value=10

I. Cc1cccc(Cl)c1-n1cnc2nc(Nc3ccc(OC(F)(F)F)cc3)sc2c1=O
II. Cc1cc(C)cc(Nc2nc3ncn(-c4c(C)cccc4Cl)c(=O)c3s2)c1
III. Cc1cc(Nc2nc3ncn(-c4c(C)cccc4Cl)c(=O)c3s2)cc(C)c1C
(Q) Could you please order the items by EC50, going from the lowest number to the highest? Give your ranking as a list of the labels in the requested order.
(A) III, II, I
(III: 3.15 µM, II: 5.02 µM, I: 10 µM)

====

- Target entity: α7 nAChR (Homo sapiens)
- Construct: expressed in transfected cells; host or cells: Xenopus oocytes (cRNA injection)
- Assay procedure: α7 nAChR positive allosteric modulator activity assay, voltage clamp in Xenopus oocytes with 100 μM ACh
- Format: cell-based
- Details: at 10 μM compound; current induced by 100 μM ACh; Xenopus oocytes expressing α7 nAChR; read-out: Max Mod (%, at 10 μM)
Attribute measured: activity at 10 µM (%)

Previously resolved entries follow.
smiles=Cc1cccc(Cl)c1-n1cnc2nc(Nc3ccc(F)c(F)c3)sc2c1=O data_value=300
smiles=Cc1cccc(Cl)c1-n1cnc2nc(NC(=O)c3ccc(F)cc3)sc2c1=O data_value=150
smiles=Cc1ccc(Nc2nc3ncn(-c4ccccc4C)c(=O)c3s2)cc1F data_value=300
smiles=Cc1cccc(Cl)c1-n1cnc2nc(Sc3ccc(F)cc3)sc2c1=O data_value=200
smiles=CCCNc1nc2ncn(-c3c(C)cccc3Cl)c(=O)c2s1 data_value=110

A. Cc1cccc(Cl)c1-n1cnc2nc(Nc3ccc(Cl)nn3)sc2c1=O
B. Cc1ccc(Nc2nc3ncn(-c4c(C)cccc4Br)c(=O)c3s2)cc1F
C. Cc1ccccc1CSc1nc2ncn(-c3c(C)cccc3Cl)c(=O)c2s1
D. Cc1ccc(Nc2nc3ncn(-c4ccccc4Cl)c(=O)c3s2)cc1
(Q) Could you please order the items by activity at 10 µM, going from the lowest number to the highest? Give your ranking as a list of the labels in the requested order.
(A) A, B, C, D

====

- Target entity: α7 nAChR (Homo sapiens)
- Assay procedure: α7 nAChR positive allosteric modulator activity assay, voltage clamp in Xenopus oocytes with 100 μM ACh
- Details: summary statement; read-out: Ki value as an α7nAChR PAM
Attribute measured: Ki

(Q) What value of Ki has been recorded for this entry: `Cc1nc(Cl)cc(Nc2nc3ncn(-c4c(C)cccc4Cl)c(=O)c3s2)n1`
(A) ~3 µM

====

- Target entity: α7 nAChR (Homo sapiens, UniProt P36544)
- Construct: expressed in transfected cells; host or cells: Xenopus oocytes (cRNA injection)
- Sequence (P36544 23-502): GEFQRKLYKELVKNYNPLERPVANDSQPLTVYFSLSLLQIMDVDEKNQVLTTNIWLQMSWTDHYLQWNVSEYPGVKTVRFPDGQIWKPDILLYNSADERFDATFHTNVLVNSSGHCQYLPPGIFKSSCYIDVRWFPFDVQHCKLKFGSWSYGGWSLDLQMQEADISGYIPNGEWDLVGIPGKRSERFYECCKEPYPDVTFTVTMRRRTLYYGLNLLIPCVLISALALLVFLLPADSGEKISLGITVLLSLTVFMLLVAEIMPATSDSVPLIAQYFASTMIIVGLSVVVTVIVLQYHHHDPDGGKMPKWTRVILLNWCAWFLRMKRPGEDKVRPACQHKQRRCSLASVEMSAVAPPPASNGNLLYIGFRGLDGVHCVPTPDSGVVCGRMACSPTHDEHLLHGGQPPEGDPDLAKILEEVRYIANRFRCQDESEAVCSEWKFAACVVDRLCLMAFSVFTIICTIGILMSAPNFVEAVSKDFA
- Assay procedure: α7 nAChR positive allosteric modulator activity assay, voltage clamp in Xenopus oocytes with 100 μM ACh
- Assay type: cell-based
- Details: at 10 μM compound; current induced by 100 μM ACh; Xenopus oocytes expressing α7 nAChR; read-out: Max Mod (%, at 10 μM)
Attribute measured: activity at 10 µM (%)

Previously resolved entries follow.
smiles=Cc1cccc(Cl)c1-n1cnc2nc(Nc3ccc(F)cc3)sc2c1=O data_value=250
smiles=Cc1ccc(CSc2nc3ncn(-c4c(C)cccc4Cl)c(=O)c3s2)cc1 data_value=300
smiles=Cc1cccc(Cl)c1-n1cnc2nc(-c3ccccc3)sc2c1=O data_value=110
smiles=Cc1cccc(Cl)c1-n1cnc2nc(Nc3cccc(Cl)c3)sc2c1=O data_value=300

1. Cc1ccc(-n2cnc3nc(Nc4ccc(C)c(F)c4)sc3c2=O)c(Cl)c1
2. Cc1cccc(Cl)c1-n1cnc2nc(NC(=O)c3ccc(OC(F)(F)F)cc3)sc2c1=O
3. Cc1cccc(Cl)c1-n1cnc2nc(Nc3ccc(Cl)cc3)sc2c1=O
(Q) Could you please order the items by activity at 10 µM, going from the lowest number to the highest? Give your ranking as a list of the labels in the requested order.
(A) 1, 3, 2

====

- Target entity: α7 nAChR (Homo sapiens, UniProt P36544)
- Construct: expressed in transfected cells; host or cells: Xenopus oocytes (cRNA injection)
- Assay procedure: α7 nAChR positive allosteric modulator activity assay, voltage clamp in Xenopus oocytes with 100 μM ACh
- Assay type: cell-based
- Details: at 10 μM compound; current induced by 100 μM ACh; Xenopus oocytes expressing α7 nAChR; read-out: Max Mod (%, at 10 μM)
Attribute measured: activity at 10 µM (%)

Previously resolved entries follow.
smiles=COc1ccc(CSc2nc3ncn(-c4c(C)cccc4Cl)c(=O)c3s2)cc1 target_entity="α7 nAChR (Homo sapiens, UniProt P36544)" attribute_measured="activity at 10 µM" data_value=300
smiles=Cc1cc(Nc2nc3ncn(-c4c(C)cccc4Cl)c(=O)c3s2)cc(C)c1C target_entity="α7 nAChR (Homo sapiens, UniProt P36544)" attribute_measured="activity at 10 µM" data_value=600
smiles=CSc1nc2ncn(-c3c(Cl)cccc3Cl)c(=O)c2s1 target_entity="α7 nAChR (Homo sapiens, UniProt P36544)" attribute_measured="activity at 10 µM" data_value=110
smiles=Cc1cccc(Cl)c1-n1cnc2nc(Sc3ccccc3)sc2c1=O target_entity="α7 nAChR (Homo sapiens, UniProt P36544)" attribute_measured="activity at 10 µM" data_value=380
smiles=Cc1nc(Cl)cc(Nc2nc3nnn(-c4c(C)cccc4Cl)c(=O)c3s2)n1 target_entity="α7 nAChR (Homo sapiens, UniProt P36544)" attribute_measured="activity at 10 µM" data_value=110
smiles=Cc1cccc(Cl)c1-n1cnc2nc(NC(=O)c3ccccc3)sc2c1=O target_entity="α7 nAChR (Homo sapiens, UniProt P36544)" attribute_measured="activity at 10 µM" data_value=200
smiles=Cc1cccc(Cl)c1-n1cnc2nc(NC(=O)c3ccc(C(F)(F)F)cc3)sc2c1=O target_entity="α7 nAChR (Homo sapiens, UniProt P36544)" attribute_measured="activity at 10 µM" data_value=200
smiles=Cc1ccc(Nc2nc3ncn(-c4ccccc4C)c(=O)c3s2)cc1 target_entity="α7 nAChR (Homo sapiens, UniProt P36544)" attribute_measured="activity at 10 µM" data_value=150

I. Cc1cccc(Cl)c1-n1cnc2nc(Nc3cc(Cl)ncn3)sc2c1=O
II. Cc1cccc(Cl)c1-n1cnc2nc(Nc3ccccn3)sc2c1=O
(Q) // task: argmin of activity at 10 µM over [ I , II ] # answer = label of selected item
(A) II

====

- Target entity: α7 nAChR (Homo sapiens, UniProt P36544)
- Construct: expressed in transfected cells; host or cells: Xenopus oocytes (cRNA injection)
- Assay procedure: α7 nAChR positive allosteric modulator activity assay, voltage clamp in Xenopus oocytes with 100 μM ACh
- Type: cell-based
- Details: at 10 μM compound; current induced by 100 μM ACh; Xenopus oocytes expressing α7 nAChR; read-out: Max Mod (%, at 10 μM)
- Experimental: The experimental process was as follows: (1) Xenopus oocytes were injected with cRNA encoding α7 nAChR in order to express α7 nAChR on the cell membrane successfully; (2) 100 μM ACh alone was added, and the α7 nAChR characteristic current caused by it was recorded as a control; (5) The oocytes were incubated for 1 min with 10 μM compound, then 10 µM compound and 100 μM ACh were added simultaneously and the current induced by ACh was recorded at this time; […]
Attribute measured: activity at 10 µM (%)

Previously resolved entries follow.
compound="Cc1cc(C)c(-n2cnc3nc(Nc4ccccc4)sc3c2=O)c(C)c1 [LD252]" unit=% data_value=110
compound="Cc1ccc(Nc2nc3ncn(-c4c(C)cccc4Cl)c(=O)c3s2)cc1C [JWX-A0315]" unit=% data_value=650

a. COc1ccc(Sc2nc3ncn(-c4c(C)cccc4Cl)c(=O)c3s2)cc1 [LYH150909]
b. COc1ccc(Nc2nc3ncn(-c4c(C)cccc4Cl)c(=O)c3s2)cc1 [JWX-A1030]
(Q) // task: argmin of activity at 10 µM over [ a , b ] # answer = label of selected item
(A) a

P. Cc1cc(C)c(-n2cnc3nc(Nc4ccncc4)sc3c2=O)c(C)c1 [LD293]
Q. Cc1cccc(Cl)c1-n1cnc2nc(Nc3ccccc3F)sc2c1=O [JWX-A0611]
(Q) // task: argmin of activity at 10 µM over [ P , Q ] # answer = label of selected item
(A) P
(P: 110%, Q: 200%)

P. Cc1cccc(Cl)c1-n1cnc2nc(Nc3ccc(F)c(Cl)c3)sc2c1=O [JWX-A-C0104]
Q. Cc1cccc(Cl)c1-n1cnc2nc(Nc3cccc(OC(F)(F)F)c3)sc2c1=O [JWX-A-C0907]
(Q) // task: argmin of activity at 10 µM over [ P , Q ] # answer = label of selected item
(A) Q
